Below, each entry is listed alongside its reported IC50.
Measured target: KRAS WT (Homo sapiens (Human), UniProt P01116+P62937)
Sequence (P01116-2 other isoform, or with tags, fused parts or gaps): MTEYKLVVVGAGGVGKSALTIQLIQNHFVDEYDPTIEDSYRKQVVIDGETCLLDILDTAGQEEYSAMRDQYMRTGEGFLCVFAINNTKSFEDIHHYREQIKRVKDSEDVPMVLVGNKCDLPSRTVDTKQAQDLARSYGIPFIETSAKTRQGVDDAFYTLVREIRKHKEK
Sequence (P62937 whole entry): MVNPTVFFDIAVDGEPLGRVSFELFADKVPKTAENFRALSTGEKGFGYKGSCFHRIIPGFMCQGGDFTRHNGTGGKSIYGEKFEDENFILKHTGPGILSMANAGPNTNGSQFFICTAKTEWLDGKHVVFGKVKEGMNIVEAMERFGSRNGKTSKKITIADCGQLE
Assay protocol: Ras-Raf (BRAF RBD) disruption / FRET / MOA assay, KRAS WT
Format: biochemical
Condition: read-out: IC50* KRAS WT FRET data
Experimental: The purpose of this biochemical assay is to measure the ability of test compounds to facilitate ternary complex formation between a nucleotide-loaded Ras isoform and cyclophilin A; the resulting ternary complex disrupts binding to a BRAF^RBD construct, inhibiting Ras signaling through a RAF effector. Compound is present in plate wells as a 10-point 3-fold dilution series starting at a final concentration of 30 μM. […]
Observation type: IC50

[
  {
    "Compound": "C=CC(=O)N1CC[C@H](C(=O)N(C)[C@H](C(=O)N[C@H]2Cc3cccc(n3)-c3ccc4c(c3)c(c(-c3cccnc3[C@H](C)OC)n4CC)CC(C)(C)COC(=O)[C@@H]3CCCN(N3)C2=O)C(C)C)C1 (atropisomer, axis not shown) [Example A442]",
    "Measured target": "KRAS WT (Homo sapiens (Human), UniProt P01116+P62937)",
    "Observation type": "IC50",
    "Assay value": "> 10 µM"
  },
  {
    "Compound": "C=CC(=O)N1CC[C@H](C(=O)N(C)[C@H](C(=O)N[C@H]2Cc3cccc(c3)-c3ccc4c(c3)c(c(-c3cc(CN(C)C)cnc3[C@H](C)OC)n4CC)CC(C)(C)COC(=O)[C@@H]3CCCN(N3)C2=O)C(C)C)C1 [Example A523]",
    "Measured target": "KRAS WT (Homo sapiens (Human), UniProt P01116+P62937)",
    "Observation type": "IC50",
    "Assay value": "> 10 µM"
  },
  {
    "Compound": "CCn1c(-c2cccnc2[C@H](C)OC)c2c3cc(ccc31)-c1csc(n1)C[C@H](NC(=O)[C@H](C(C)C)N(C)C(=O)[C@H]1CCC(C(=O)/C=C/CN(C)C)C1)C(=O)N1CCC[C@H](N1)C(=O)OCC(C)(C)C2 (some centres unmarked) [Example A282]",
    "Measured target": "KRAS WT (Homo sapiens (Human), UniProt P01116+P62937)",
    "Observation type": "IC50",
    "Assay value": "1 to 10 µM"
  },
  {
    "Compound": "CCn1c(-c2cccnc2[C@H](C)OC)c2c3cc(ccc31)-c1cccc(c1)C[C@H](NC(=O)[C@H](C(C)C)N1CC[C@]3(CCN(C(=O)C#C[C@@]4(N(C)C)CCOC4)C3)C1=O)C(=O)N1CCC[C@H](N1)C(=O)OCC(C)(C)C2 (atropisomer, axis not shown) [Example A560]",
    "Measured target": "KRAS WT (Homo sapiens (Human), UniProt P01116+P62937)",
    "Observation type": "IC50",
    "Assay value": "1 to 10 µM"
  },
  {
    "Compound": "CCn1c(-c2cnccc2COC)c2c3cc(ccc31)-c1cc(O)cc(c1)C[C@H](NC(=O)[C@H](C(C)C)N(C)C(=O)[C@H]1CCN(C(=O)C#CCN(C)C)C1)C(=O)N1CCC[C@H](N1)C(=O)OCC(C)(C)C2 (atropisomer, axis not shown) [Example A107]",
    "Measured target": "KRAS WT (Homo sapiens (Human), UniProt P01116+P62937)",
    "Observation type": "IC50",
    "Assay value": "0.1 to 1 µM"
  },
  {
    "Compound": "C=CC(=O)N1C[C@H](C)N(C(=O)N(C)[C@H](C(=O)N[C@H]2Cc3nc(cs3)-c3ccc4c(c3)c(c(-c3cccnc3[C@H](C)OC)n4CC)CC(C)(C)COC(=O)[C@@H]3CCCN(N3)C2=O)C(C)C)C[C@@H]1C (atropisomer, axis not shown) [Example A385]",
    "Measured target": "KRAS WT (Homo sapiens (Human), UniProt P01116+P62937)",
    "Observation type": "IC50",
    "Assay value": "0.01 to 0.1 µM"
  },
  {
    "Compound": "CCn1c(-c2cccnc2[C@H](C)OC)c2c3cc(ccc31)-c1cccc(c1)C[C@H](NC(=O)[C@H](C(C)C)N1CC[C@@]3(CCN(C(=O)C#C[C@@H]4COCCN4C)C3)C1=O)C(=O)N1CCC[C@H](N1)C(=O)OCC(C)(C)C2 (atropisomer, axis not shown) [Example A549]",
    "Measured target": "KRAS WT (Homo sapiens (Human), UniProt P01116+P62937)",
    "Observation type": "IC50",
    "Assay value": "1 to 10 µM"
  },
  {
    "Compound": "C=CC(=O)N1CC[C@@H](C(=O)N(C)[C@H](C(=O)N[C@H]2Cc3cccc(c3)-c3ccc4c(c3)c(c(-c3cccnc3[C@H](C)OC)n4CC)CC(C)(C)COC(=O)[C@@H]3CCCN(N3)C2=O)C(C)C)C1 (atropisomer, axis not shown) [Example A488]",
    "Measured target": "KRAS WT (Homo sapiens (Human), UniProt P01116+P62937)",
    "Observation type": "IC50",
    "Assay value": "1 to 10 µM"
  }
]

The reported numbers originate from patent US11566007B2.
